Test system: Staphylococcus aureus
PROTOCOL_NOTES: Antibacterial activity against methicillin-resistant Staphylococcus aureus by microbroth dilution assay
Format: functional
Calls of active or inactive are those of the source. The rule behind the calls is not given here.
VALUE_KIND: MIC

Record excerpt, results attached:
MOLECULE	MIC
O=C(O)[C@@H]1CCCN1C(=O)/C=C/CCCCCCCCCC=C(Br)Br	9 µg/mL
O=C(/C=C/CCCCCCCCCC=C(Br)Br)N[C@H](C(=O)O)c1ccccc1	21 µg/mL
O=C(O)CCNC(=O)/C=C/CCCCCCCCCC=C(Br)Br	3.3 µg/mL
O=C(O)CN(CC(=O)O)C(=O)/C=C/CCCCCCCCCC=C(Br)Br	inactive
CC(C)C[C@H](NC(=O)/C=C/CCCCCCCCCC=C(Br)Br)C(=O)O	2.9 µg/mL
C[N+](C)(C)CCNC(=O)/C=C/CCCCCCCCCC=C(Br)Br.[Cl-]	4.2 µg/mL

**Q:** Please list MIC recorded for the molecule O=C(/C=C/CCCCCCCCCC=C(Br)Br)N[C@@H](Cc1ccccc1)C(=O)O
**A:** 4.4 µg/mL

**Q:** Please list MIC recorded for the molecule O=C(O)C[C@H](NC(=O)/C=C/CCCCCCCCCC=C(Br)Br)C(=O)O
**A:** inactive

**Q:** Please list MIC recorded for the molecule O=C(O)CNC(=O)/C=C/CCCCCCCCCC=C(Br)Br [MOTUALEVIC ACID A]
**A:** 9.3 µg/mL

**Q:** Please list MIC recorded for the molecule O=C(O)CCCNC(=O)/C=C/CCCCCCCCCC=C(Br)Br
**A:** 2.4 µg/mL

**Q:** Please list MIC recorded for the molecule O=C(O)[C@H]1CCCN1C(=O)/C=C/CCCCCCCCCC=C(Br)Br
**A:** 19 µg/mL

* * *

Answer each item with its documented MIC.
System: Enterococcus
PROTOCOL_NOTES: Antibacterial activity against vancomycin-resistant Enterococcus by microbroth dilution assay
Format: functional

**Q:** Please list MIC recorded for the compound O=C(O)CCNC(=O)/C=C/CCCCCCCCCC=C(Br)Br
**A:** 12 µg/mL

**Q:** Please list MIC recorded for the compound O=C(O)[C@H]1CCCN1C(=O)/C=C/CCCCCCCCCC=C(Br)Br
**A:** 11 µg/mL

**Q:** Please list MIC recorded for the compound C[N+](C)(C)CCNC(=O)/C=C/CCCCCCCCCC=C(Br)Br.[Cl-]
**A:** 5.2 µg/mL

**Q:** Please list MIC recorded for the compound O=C(/C=C/CCCCCCCCCC=C(Br)Br)N[C@H](C(=O)O)c1ccccc1
**A:** 22 µg/mL

**Q:** Please list MIC recorded for the compound O=C(O)CCCNC(=O)/C=C/CCCCCCCCCC=C(Br)Br
**A:** 8.5 µg/mL

* * *

Answer each item with its documented zone of inhibition at 25 µg/disc.
Tested on: Enterococcus faecium
PROTOCOL_NOTES: Antibacterial activity against Enterococcus faecium at 25 ug/disk by agar disk diffusion assay
Format: functional
MEASUREMENT_SETUP: read-out: IZ
Quick note: unit goes after the number.

**Q:** Please list zone of inhibition at 25 µg/disc recorded for the molecule O=C(O)[C@@H]1CCCN1C(=O)/C=C/CCCCCCCCCC=C(Br)Br
**A:** 8 mm

**Q:** Please list zone of inhibition at 25 µg/disc recorded for the molecule O=C(O)[C@@H]1C[C@H](O)CN1C(=O)/C=C/CCCCCCCCCC=C(Br)Br
**A:** 8 mm

**Q:** Please list zone of inhibition at 25 µg/disc recorded for the molecule O=C(O)[C@H]1CCCN1C(=O)/C=C/CCCCCCCCCC=C(Br)Br
**A:** 8 mm

**Q:** Please list zone of inhibition at 25 µg/disc recorded for the molecule O=C(O)CNC(=O)/C=C/CCCCCCCCCC=C(Br)Br [MOTUALEVIC ACID A]
**A:** 8 mm

**Q:** Please list zone of inhibition at 25 µg/disc recorded for the molecule C[N+](C)(C)CCNC(=O)/C=C/CCCCCCCCCC=C(Br)Br.[Cl-]
**A:** 8 mm

**Q:** Please list zone of inhibition at 25 µg/disc recorded for the molecule O=C(O)CCNC(=O)/C=C/CCCCCCCCCC=C(Br)Br
**A:** 8 mm
